target: plasma kallikrein (Homo sapiens, UniProt P03952); test: inhibition of plasma kallikrein, dissociation constant Ki
Sequence (P03952 391-638 limits assumed, species assumed): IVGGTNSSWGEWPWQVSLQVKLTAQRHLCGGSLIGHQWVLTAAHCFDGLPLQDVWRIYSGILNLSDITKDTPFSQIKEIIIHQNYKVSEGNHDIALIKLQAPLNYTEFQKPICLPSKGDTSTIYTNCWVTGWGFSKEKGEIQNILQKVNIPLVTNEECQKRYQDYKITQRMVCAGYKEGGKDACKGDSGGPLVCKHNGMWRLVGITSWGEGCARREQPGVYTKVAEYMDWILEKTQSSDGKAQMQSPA
Sequence (P03952 20-390 partner limits assumed, species assumed): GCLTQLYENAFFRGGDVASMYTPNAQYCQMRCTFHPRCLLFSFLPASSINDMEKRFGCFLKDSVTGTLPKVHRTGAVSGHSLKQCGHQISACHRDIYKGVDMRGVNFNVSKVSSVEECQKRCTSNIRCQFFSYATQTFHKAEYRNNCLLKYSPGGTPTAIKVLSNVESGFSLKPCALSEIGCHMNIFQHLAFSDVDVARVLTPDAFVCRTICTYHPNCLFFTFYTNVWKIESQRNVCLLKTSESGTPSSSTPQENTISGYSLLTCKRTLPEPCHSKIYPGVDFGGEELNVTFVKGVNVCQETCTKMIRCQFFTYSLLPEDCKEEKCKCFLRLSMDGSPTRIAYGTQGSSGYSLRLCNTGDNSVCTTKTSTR
Where a name gives a salt, the structure may show the parent alone.
Test readout: Ki (µM)

[[record]]
compound = "NCc1cccc(CC(NS(=O)(=O)c2ccc3ccccc3c2)C(=O)N2CCN(c3ccccn3)CC2)c1 (centres unmarked)"
readout_number = 94

[[record]]
compound = "CCOC(=O)N1CCN(C(=O)C(Cc2cccc(C(=N)N)c2)NS(=O)(=O)c2ccc3ccccc3c2)CC1 (racemic) [X, reference compound]"
readout_number = 30

[[record]]
compound = "N=C(N)c1cccc(CC(NS(=O)(=O)c2ccc3ccccc3c2)C(=O)N2CCN(C(=O)C3CC3)CC2)c1 (centres unmarked)"
readout_number = 22

[[record]]
compound = "CS(=O)(=O)N1CCN(C(=O)C(Cc2cccc(C(=N)N)c2)NS(=O)(=O)c2cccc3ccccc23)CC1 (centres unmarked)"
readout_number = 79

[[record]]
compound = "N=C(N)c1cccc(CC(NS(=O)(=O)c2ccc3ccccc3c2)C(=O)N2CCN(C(=O)C3CCC3)CC2)c1 (centres unmarked)"
readout_number = 56

[[record]]
compound = "Cc1c(C)c(S(=O)(=O)N[C@@H](Cc2cccc(C(=N)N)c2)C(=O)N2CCN(S(C)(=O)=O)CC2)c(C)c2c1OC(C)(C)CC2 [Compound 10, hydrochloride]"
readout_number = 110

[[record]]
compound = "CC(=O)N1CCN(C(=O)C(Cc2cccc(C(=N)N)c2)NS(=O)(=O)c2ccc3ccccc3c2)CC1 (centres unmarked)"
readout_number = 28

[[record]]
compound = "COCC(=O)N1CCN(C(=O)C(Cc2cccc(C(=N)N)c2)NS(=O)(=O)c2ccc3ccccc3c2)CC1 (centres unmarked)"
readout_number = 16

[[record]]
compound = "N=C(N)c1cccc(CC(NS(=O)(=O)c2ccc3c(c2)C(=O)c2ccccc2C3=O)C(=O)N2CCN(C=O)CC2)c1 (centres unmarked)"
readout_number = 11

[[record]]
compound = "COc1cc(C)c(S(=O)(=O)N2CCN(C(=O)C(Cc3cccc(C(=N)N)c3)NS(=O)(=O)c3ccc4ccccc4c3)CC2)c(C)c1C (centres unmarked)"
readout_number = 6.9

[[record]]
compound = "CCS(=O)(=O)N1CCN(C(=O)C(Cc2cccc(C(=N)N)c2)NS(=O)(=O)c2ccc3ccccc3c2)CC1 (centres unmarked)"
readout_number = 58

[[record]]
compound = "N=C(N)c1cccc(CC(NS(=O)(=O)c2ccc3ccccc3c2)C(=O)N2CCN(C=O)CC2)c1 (centres unmarked)"
readout_number = 16

[[record]]
compound = "CC(=O)N1CCN(C(=O)C(Cc2cccc(C(=N)N)c2)NS(=O)(=O)c2c(C)c(C)c3c(c2C)CCC(C)(C)O3)CC1 (centres unmarked)"
readout_number = 44

[[record]]
compound = "N=C(N)c1cccc(CC(NS(=O)(=O)c2ccc3ccccc3c2)C(=O)N2CCN(C(=O)C3CCCCC3)CC2)c1 (centres unmarked)"
readout_number = 79

[[record]]
compound = "N=C(N)c1cccc(CC(NS(=O)(=O)c2ccc3ccccc3c2)C(=O)N2CCN(S(=O)(=O)c3ccccc3)CC2)c1 (centres unmarked)"
readout_number = 36

[[record]]
compound = "N=C(N)c1cccc(C[C@H](NS(=O)(=O)c2ccc3ccccc3c2)C(=O)N2CCN(C=O)CC2)c1"
readout_number = 3.6

[[record]]
compound = "CC(=O)N1CCN(C(=O)[C@H](Cc2cccc(C(=N)N)c2)NS(=O)(=O)c2ccc3ccccc3c2)CC1.Cl [Compound 2, hydrochloride]"
readout_number = 15

[[record]]
compound = "COc1cc(C)c(S(=O)(=O)N[C@@H](Cc2cccc(C(=N)N)c2)C(=O)N2CCN(S(C)(=O)=O)CC2)c(C)c1C"
readout_number = 170

[[record]]
compound = "COc1cc(C)c(S(=O)(=O)NC(Cc2cccc(C(=N)N)c2)C(=O)N2CCN(S(C)(=O)=O)CC2)c(C)c1C (centres unmarked)"
readout_number = 150

[[record]]
compound = "N=C(N)c1cccc(CC(NS(=O)(=O)c2ccc3ccccc3c2)C(=O)N2CCN(S(=O)(=O)c3ccc4ccccc4c3)CC2)c1 (centres unmarked)"
readout_number = 22

[[record]]
compound = "CCCCCC(=O)N1CCN(C(=O)C(Cc2cccc(C(=N)N)c2)NS(=O)(=O)c2ccc3ccccc3c2)CC1 (centres unmarked)"
readout_number = 23

[[record]]
compound = "CC(=O)N1CCN(C(=O)C(Cc2cccc(C(=N)N)c2)NS(=O)(=O)c2ccc3c(c2)C(=O)c2ccccc2C3=O)CC1 (centres unmarked)"
readout_number = 7

[[record]]
compound = "CC(C)C(=O)N1CCN(C(=O)C(Cc2cccc(C(=N)N)c2)NS(=O)(=O)c2ccc3ccccc3c2)CC1 (centres unmarked)"
readout_number = 50

[[record]]
compound = "Cc1cc(C)c(S(=O)(=O)N2CCN(C(=O)C(Cc3cccc(C(=N)N)c3)NS(=O)(=O)c3ccc4ccccc4c3)CC2)c(C)c1 (centres unmarked)"
readout_number = 1

[[record]]
compound = "N=C(N)c1cccc(CC(NS(=O)(=O)c2ccc3ccccc3c2)C(=O)N2CCN(c3ncccn3)CC2)c1 (centres unmarked)"
readout_number = 19

[[record]]
compound = "CS(=O)(=O)N1CCN(C(=O)[C@H](Cc2cccc(C(=N)N)c2)NS(=O)(=O)c2ccc3ccccc3c2)CC1.Cl [Compound 5, hydrochloride]"
readout_number = 9.2

